Reported Dmax values for the following compounds.
Biological target: ER in MCF-7 cells (Homo sapiens (Human))
Sequence (P03372 whole entry): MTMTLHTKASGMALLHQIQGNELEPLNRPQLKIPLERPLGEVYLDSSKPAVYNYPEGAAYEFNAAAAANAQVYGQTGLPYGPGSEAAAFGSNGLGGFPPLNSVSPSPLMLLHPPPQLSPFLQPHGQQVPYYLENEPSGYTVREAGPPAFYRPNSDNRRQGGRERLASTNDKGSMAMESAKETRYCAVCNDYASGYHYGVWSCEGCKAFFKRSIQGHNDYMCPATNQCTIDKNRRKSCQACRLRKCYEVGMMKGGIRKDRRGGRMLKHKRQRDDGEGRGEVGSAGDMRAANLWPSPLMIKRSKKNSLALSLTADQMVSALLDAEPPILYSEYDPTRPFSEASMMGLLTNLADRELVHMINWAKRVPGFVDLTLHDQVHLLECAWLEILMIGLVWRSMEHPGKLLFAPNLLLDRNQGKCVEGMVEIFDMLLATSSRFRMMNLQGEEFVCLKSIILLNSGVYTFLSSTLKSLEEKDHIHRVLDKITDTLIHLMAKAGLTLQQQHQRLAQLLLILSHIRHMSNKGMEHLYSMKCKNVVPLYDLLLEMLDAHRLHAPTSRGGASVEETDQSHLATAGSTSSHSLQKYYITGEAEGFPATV
Test: In-cell Western (ICW) ER degradation assay in MCF-7 cells
Assay type: cell-based
Settings: MCF7, read-out: MCF7 Dmax, MCF-7, maximal ER degradation, 16 hrs treatment

[
  {
    "COMPOUND": "COc1cc(N2CC(CCN3CCC4(CC3)COc3c4ccc4c3CN([C@H]3CCC(=O)NC3=O)C4=O)C2)c(F)cc1[C@@H]1c2ccc(O)cc2CC[C@@H]1c1ccccc1 [Compound A206]",
    "Dmax": "50 to 75%"
  },
  {
    "COMPOUND": "COc1c([C@@H]2c3ccc(O)cc3CC[C@@H]2c2ccccc2)ccc(N2CCC3(CC2)CC(CN2CCC4(CC2)COc2c4ccc4c2CN([C@H]2CCC(=O)NC2=O)C4=O)C3)c1F [Compound A198]",
    "Dmax": "50 to 75%"
  },
  {
    "COMPOUND": "O=C1CC[C@H](N2Cc3cc4c(cc3C2=O)OCC42CCN(C[C@H]3COC4(CCN(c5ccc([C@H]6c7ccc(O)cc7CC[C@H]6c6ccccc6)cc5)CC4)C3)CC2)C(=O)N1 [Compound A22]",
    "Dmax": "50 to 75%"
  }
]

Please turn your attention to the following entry.
Task: Supply Dmax value. Item: COc1cc(N2CCC(CN3CCN4c5ccc6c(c5OCC4C3)CN([C@H]3CCC(=O)NC3=O)C6=O)CC2)c(F)cc1[C@@H]1c2ccc(O)cc2CC[C@@H]1c1ccccc1 (stereo in doubt) [Compound A35]
Output: > 75%
